- assay_method_text: chemical genetic growth profiling, strain panel (AID 1159580);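 further: tested at 20 µM; growth read once vehicle control cultures reached saturation at 30 °C; lower values mean less growth of the strain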
- reported_conditions: S. cerevisiae deletion strains, growth OD, locus YKR001C, strain vps1
The whole screen tested about 5,500 compounds, of which about 2,000 (36%) were called active. Another 18% or so got no clear call; they are omitted. No stated cut-off is given here; in the data, active means normalized growth mostly below about 0.91 (no sharp cut-off); inconclusive means no clear call, values can overlap the other calls; inactive means mostly above about 0.92. The list shows a part of the results.
Bench note: report the call from Y for active, N for inactive

| compound | group |
| --- | --- |
| CN[C@@H]1C(O)[C@@H](O[C@@H]2[C@@H](O)[C@H](O[C@H]3OC(CN)=CC[C@H]3N)[C@@H](N)C[C@H]2N)OC[C@]1(C)O (some centres undefined) | N |
| NC(=O)NCCCC(N)C(=O)O (centres undefined) | N |
| COc1ccc2c(c1C(C)C)CCC1C(C)(C)C(=O)CCC21C (centres undefined) | N |
| COc1cc2occc2c2oc(=O)ccc12 | Y |
| COc1ccc(Cl)cc1C(=O)NCCc1ccc(S(=O)(=O)NC(=O)NC2CCCCC2)cc1 | N |
| COc1c2ccoc2cc2oc(=O)ccc12 | Y |
| COc1c(C(C)C)oc2cc3oc(=O)ccc3cc12 | Y |
| O=C(O[C@@H]1Cc2c(O)cc(O)cc2O[C@@H]1c1cc(O)c(=O)c2c(O)c(O)cc([C@H]3Oc4cc(O)cc(O)c4C[C@H]3O)c2c1)c1cc(O)c(O)c(O)c1 | Y |

Q) Fill in: this test's call for CC(C)c1c(O)c(-c2cc3c(c(C(C)C)c2O)CCC2C(C)(C)CCC[C@]32C)cc2c1CCC1C(C)(C)CCC[C@]21C (some centres undefined) is ___
A) N
